meta.source: ChEMBL document CHEMBL5543064

molecular target: Caspase-1 (Homo sapiens, UniProt P29466); assay: Inhibition of N-terminal His-tagged Caspase-1 (unknown origin)
Sequence (P29466 120-297 limits assumed): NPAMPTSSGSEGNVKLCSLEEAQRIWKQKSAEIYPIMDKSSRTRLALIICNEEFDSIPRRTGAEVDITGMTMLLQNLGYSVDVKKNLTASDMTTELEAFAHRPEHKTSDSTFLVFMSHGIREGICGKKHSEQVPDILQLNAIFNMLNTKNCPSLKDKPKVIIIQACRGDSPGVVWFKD
Sequence (P29466 317-404 limits assumed): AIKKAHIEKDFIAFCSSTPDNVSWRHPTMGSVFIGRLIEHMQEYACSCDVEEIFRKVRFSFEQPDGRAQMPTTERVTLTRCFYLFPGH
Metric name: pIC50
To interpret pIC50, take it as minus log10 of a concentration measured in moles per litre.

COC(=O)CC(NC(=O)C(NC(=O)OCc1ccccc1)c1ccccc1)C(=O)COC(=O)c1ccccc1 (configuration not stated); 5.25

Now look at this one.
Asked: Give pIC50 (Caspase-1 (Homo sapiens, UniProt P29466)) of the following molecule: O=C(O)CC(NC(=O)C(NC(=O)OCc1ccccc1)c1ccccc1)C(=O)COC(=O)c1ccccc1 (configuration not stated)
Given back: 6.09

---

experiment: Oral bioavailability in rat; format: ADME, organism-based; details: in vivo
Metric name: bioavailability (%)
All answers are understood in %, so give the number only.

Asked: Fill in: bioavailability of O=C1C[C@H](NC(=O)[C@@H]2CCCN3C(=O)CC[C@H](NC(=O)c4nccc5ccccc45)C(=O)N23)[C@H](O)O1 is ___
Given back: 4
